Target: infectious CHIKV virion particle with E3 associated (strain CHIKV-181/25) (Chikungunya virus) (UniProt Q8JUX5)
Sequence (Q8JUX5 whole entry, looked up): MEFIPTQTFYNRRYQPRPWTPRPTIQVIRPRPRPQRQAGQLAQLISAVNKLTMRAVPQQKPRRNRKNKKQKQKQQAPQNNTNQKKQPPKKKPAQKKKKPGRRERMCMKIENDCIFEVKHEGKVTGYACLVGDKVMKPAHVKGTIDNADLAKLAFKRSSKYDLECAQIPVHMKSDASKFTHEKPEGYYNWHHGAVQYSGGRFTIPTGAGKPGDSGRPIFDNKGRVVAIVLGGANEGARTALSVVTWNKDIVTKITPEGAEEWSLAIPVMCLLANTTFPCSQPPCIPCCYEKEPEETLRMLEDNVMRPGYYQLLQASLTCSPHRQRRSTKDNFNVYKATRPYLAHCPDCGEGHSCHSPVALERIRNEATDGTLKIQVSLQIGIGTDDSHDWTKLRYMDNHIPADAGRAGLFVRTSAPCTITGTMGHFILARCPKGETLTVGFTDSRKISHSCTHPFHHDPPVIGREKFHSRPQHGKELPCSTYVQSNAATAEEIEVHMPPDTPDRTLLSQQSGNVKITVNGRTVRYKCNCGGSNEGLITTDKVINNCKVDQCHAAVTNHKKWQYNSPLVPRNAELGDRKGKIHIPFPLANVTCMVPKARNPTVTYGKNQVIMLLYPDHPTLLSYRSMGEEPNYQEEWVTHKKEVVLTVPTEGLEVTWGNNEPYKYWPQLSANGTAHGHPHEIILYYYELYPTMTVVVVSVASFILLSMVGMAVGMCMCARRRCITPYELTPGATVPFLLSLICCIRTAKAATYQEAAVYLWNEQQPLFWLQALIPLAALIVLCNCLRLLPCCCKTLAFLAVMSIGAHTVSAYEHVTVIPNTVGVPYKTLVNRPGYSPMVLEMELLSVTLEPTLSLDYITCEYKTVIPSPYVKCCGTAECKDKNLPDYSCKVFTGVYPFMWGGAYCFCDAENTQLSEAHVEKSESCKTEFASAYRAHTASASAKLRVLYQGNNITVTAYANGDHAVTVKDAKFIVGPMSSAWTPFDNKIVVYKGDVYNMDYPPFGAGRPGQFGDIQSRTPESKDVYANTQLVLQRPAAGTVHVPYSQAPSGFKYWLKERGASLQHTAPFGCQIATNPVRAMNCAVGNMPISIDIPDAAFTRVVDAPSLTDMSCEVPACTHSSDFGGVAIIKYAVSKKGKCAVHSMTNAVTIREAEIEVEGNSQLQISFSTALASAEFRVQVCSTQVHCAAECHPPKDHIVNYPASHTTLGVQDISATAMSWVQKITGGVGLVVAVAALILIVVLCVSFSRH
// reported PRNT50, post-attachment neutralisation assay on Vero cells for each item listed
Readout name: PRNT50, post-attachment neutralisation assay on Vero cells (ng/mL)

Binder: C34 Fab (papain digestion of the mAb) (Fab, V domains shown) VH: EVQLVESGGGLVQPGRSLRLSCAASGFTFDDYAMHWVRQAPGKGLEWVSGISWNSGSIGYADSVKGRFTISRDNAKNSLYLQMNSLRAEDTALYYCAKDMGYSGNDDYYGMDVWGQGTTVTVSS VL: DIQLTQSPSSLSASVGDRVTITCRASQRISSYLNWYQQKPGKAPKLLIYGAFSLQSGVPSRFSGSGSGTDFTLTISSLQPEDFATYYCQQSYRTLTRTFGQGTKVEIK
Readout number: 97
--
Binder: C34 IgG (antibody, V domains shown) VH: EVQLVESGGGLVQPGRSLRLSCAASGFTFDDYAMHWVRQAPGKGLEWVSGISWNSGSIGYADSVKGRFTISRDNAKNSLYLQMNSLRAEDTALYYCAKDMGYSGNDDYYGMDVWGQGTTVTVSS VL: DIQLTQSPSSLSASVGDRVTITCRASQRISSYLNWYQQKPGKAPKLLIYGAFSLQSGVPSRFSGSGSGTDFTLTISSLQPEDFATYYCQQSYRTLTRTFGQGTKVEIK
Readout number: 48.7
--
Binder: C37 IgG (antibody, V domains shown) VH: QVQLQESGPGLVKPSETLSLTCTVSGGSIGSSSYYWGWIRQPPGKGLQWIGSFHYSGTTYYNPSLKSRVTISVDTSKNHFSLKLSSVTAADTAVYYCASRQNWNDGYFDYWGQGTLVTVSS VL: DIQMTQSPATLSLSPGERATLFCRASQSVSSSLAWYQQKPGQAPRLLIYDASNRATGIPARFSGSGSGTDFTLTISSLEPEDFAVYYCQQRGNWPPITFGQGTRLDTK
Readout number: 164
--
Binder: C37 Fab (papain digestion of the mAb) (Fab, V domains shown) VH: QVQLQESGPGLVKPSETLSLTCTVSGGSIGSSSYYWGWIRQPPGKGLQWIGSFHYSGTTYYNPSLKSRVTISVDTSKNHFSLKLSSVTAADTAVYYCASRQNWNDGYFDYWGQGTLVTVSS VL: DIQMTQSPATLSLSPGERATLFCRASQSVSSSLAWYQQKPGQAPRLLIYDASNRATGIPARFSGSGSGTDFTLTISSLEPEDFAVYYCQQRGNWPPITFGQGTRLDTK
Readout number: 727

Attribution: paper PMC12583524
